Hi there, I'd appreciate the recorded viability, T/C for every entry that follows.
tested on: 282377-053-R-J1-PDC complex spheroid viability; experiment: Anticancer human tumor 282377-053-R-J1-PDC patient-derived colon adenocarcinoma cell line growth inhibition [RAS]; settings: second compound 1 µM; first compound 10 µM; stronger effect = lower value
One number for each entry, in %.

Reference set, count: 5
Compound: CC(C)NCC(C(=O)N1CCN(c2ncnc3c2C(C)CC3O)CC1)c1ccc(Cl)cc1 (stereo unspecified) + C#Cc1c(F)ccc2cc(O)cc(-c3ncc4c(N5CC6CCC(C5)N6)nc(OCC56CCCN5CC(F)C6)nc4c3F)c12
Assay metric: viability, T/C
Recorded measurement: 69.5
--
Compound: C[C@@H](NC(=O)c1ncnc(N)c1Cl)c1ncc(C(=O)Nc2cc(C(F)(F)F)c(Cl)cn2)s1 + C#Cc1c(F)ccc2cc(O)cc(-c3ncc4c(N5CC6CCC(C5)N6)nc(OCC56CCCN5CC(F)C6)nc4c3F)c12
Assay metric: viability, T/C
Recorded measurement: 77
--
Compound: CCC(CC)c1cc(NC2CCC(N)C2)n2nccc2n1 (stereo unspecified) + C=CC(=O)N1CCN(c2nc(OCC3CCCN3C)nc3c(F)c(-c4nc(N)cc(C)c4C(F)(F)F)c(Cl)cc23)C(C)C1
Assay metric: viability, T/C
Recorded measurement: 2.25
--
Compound: CC(=O)OC12COC1CC(O)C1(C)C(=O)C(O)C3=C(C)C(OC(=O)C(O)C(NC(=O)OC(C)(C)C)c4ccccc4)CC(O)(C(OC(=O)c4ccccc4)C21)C3(C)C (stereo unspecified) + C#Cc1c(F)ccc2cc(O)cc(-c3ncc4c(N5CC6CCC(C5)N6)nc(OCC56CCCN5CC(F)C6)nc4c3F)c12
Assay metric: viability, T/C
Recorded measurement: 61.5
--
Compound: NC1c2ccccc2OC12CCN(c1cnc3c(N4CCCc5ncccc54)n[nH]c3n1)CC2 (stereo unspecified) + C#Cc1c(F)ccc2cc(O)cc(-c3ncc4c(N5CC6CCC(C5)N6)nc(OCC56CCCN5CC(F)C6)nc4c3F)c12
Assay metric: viability, T/C
Recorded measurement: 83

Fill in reported viability, T/C for this entry: NC1c2ccccc2OC12CCN(c1cnc3c(N4CCCc5ncccc54)n[nH]c3n1)CC2 (stereo unspecified) + C=CC(=O)N1CCN(c2nc(OCC3CCCN3C)nc3c(F)c(-c4nc(N)cc(C)c4C(F)(F)F)c(Cl)cc23)C(C)C1
86.6

* * *

tested on: 282377-053-R-J1-PDC complex spheroid viability; assay: Anticancer human tumor 282377-053-R-J1-PDC cell line growth inhibition [RAS]; conditions: second compound 0.0316 µM; first compound 0.1 µM; stronger effect = lower value;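 note: spheroids exposed to agents for seven days before readout; luminescence viability as percent of DMSO vehicle control wells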
Assay metric: viability, T/C (%)
Answers are plain numbers, in %.

Molecule: Nc1ccn(C2OC(CO)C(O)C2(F)F)c(=O)n1 (stereo not given) + C#Cc1c(F)ccc2cc(O)cc(-c3ncc4c(N5CC6CCC(C5)N6)nc(OCC56CCCN5CC(F)C6)nc4c3F)c12
Readout unit: %
Recorded measurement: 79.5

Molecule: CCN1CCN(Cc2ccc(Nc3ncc(F)c(-c4cc(F)c5nc(C)n(C(C)C)c5c4)n3)nc2)CC1 + C=CC(=O)N1CCN(c2nc(OCC3CCCN3C)nc3c(F)c(-c4nc(N)cc(C)c4C(F)(F)F)c(Cl)cc23)C(C)C1
Readout unit: %
Recorded measurement: 121

Molecule: CC1(O)CCCC1n1c(=O)c(C(F)F)cc2cnc(NC3CCN(S(C)(=O)=O)CC3)nc21 (stereo not given) + C=CC(=O)N1CCN(c2nc(OCC3CCCN3C)nc3c(F)c(-c4nc(N)cc(C)c4C(F)(F)F)c(Cl)cc23)C(C)C1
Readout unit: %
Recorded measurement: 141

Molecule: CC(Nc1ccc2c(c1)OCCn1cc(N3C(=O)OCC3C(F)F)nc1-2)C(N)=O (stereo not given) + C=CC(=O)N1CCN(c2nc(OCC3CCCN3C)nc3c(F)c(-c4nc(N)cc(C)c4C(F)(F)F)c(Cl)cc23)C(C)C1
Readout unit: %
Recorded measurement: 86.9

Molecule: O=C(c1ccc(F)c(F)c1Nc1ccc(I)cc1F)N1CC(O)([C@@H]2CCCCN2)C1 + C#Cc1c(F)ccc2cc(O)cc(-c3ncc4c(N5CC6CCC(C5)N6)nc(OCC56CCCN5CC(F)C6)nc4c3F)c12
Readout unit: %
Recorded measurement: 42.3

I would be grateful if you could provide viability, T/C for each of the following entries.
1. C=CC(=O)N1CCN(c2nc(OCC3CCCN3C)nc3c(F)c(-c4nc(N)cc(C)c4C(F)(F)F)c(Cl)cc23)C(C)C1 (stereo not given) + C#Cc1c(F)ccc2cc(O)cc(-c3ncc4c(N5CC6CCC(C5)N6)nc(OCC56CCCN5CC(F)C6)nc4c3F)c12
2. NC1c2ccccc2OC12CCN(c1cnc3c(N4CCCc5ncccc54)n[nH]c3n1)CC2 (stereo not given) + C=CC(=O)N1CCN(c2nc(OCC3CCCN3C)nc3c(F)c(-c4nc(N)cc(C)c4C(F)(F)F)c(Cl)cc23)C(C)C1

1. 108
2. 105

I would be grateful if you could provide viability, T/C for each of the following entries.
1. NC1c2ccccc2OC12CCN(c1cnc3c(N4CCCc5ncccc54)n[nH]c3n1)CC2 (stereo not given) + C#Cc1c(F)ccc2cc(O)cc(-c3ncc4c(N5CC6CCC(C5)N6)nc(OCC56CCCN5CC(F)C6)nc4c3F)c12
2. CC(C)NCC(C(=O)N1CCN(c2ncnc3c2C(C)CC3O)CC1)c1ccc(Cl)cc1 (stereo not given) + C#Cc1c(F)ccc2cc(O)cc(-c3ncc4c(N5CC6CCC(C5)N6)nc(OCC56CCCN5CC(F)C6)nc4c3F)c12
3. CC(Nc1ccc2c(c1)OCCn1cc(N3C(=O)OCC3C(F)F)nc1-2)C(N)=O (stereo not given) + C#Cc1c(F)ccc2cc(O)cc(-c3ncc4c(N5CC6CCC(C5)N6)nc(OCC56CCCN5CC(F)C6)nc4c3F)c12

1. 91.7
2. 111
3. 84.6

* * *

system: 282377-053-R-J1-PDC complex spheroid viability; assay: Anticancer human tumor 282377-053-R-J1-PDC cell line growth inhibition [RAS]; conditions: second compound 0.316 µM; first compound 1 µM; stronger effect = lower value;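 note: spheroids exposed to agents for seven days before readout; luminescence viability as percent of DMSO vehicle control wells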
Assay metric: viability, T/C (%)
Numbers only, in %.

Compound: C=CC(=O)Nc1cc(Nc2nccc(-c3cn(C)c4ccccc34)n2)c(OC)cc1N(C)CCN(C)C + C=CC(=O)N1CCN(c2nc(OCC3CCCN3C)nc3c(F)c(-c4nc(N)cc(C)c4C(F)(F)F)c(Cl)cc23)C(C)C1
Readout unit: %
viability, T/C: 122
--
Compound: CC1(O)CCCC1n1c(=O)c(C(F)F)cc2cnc(NC3CCN(S(C)(=O)=O)CC3)nc21 (stereo not given) + C#Cc1c(F)ccc2cc(O)cc(-c3ncc4c(N5CC6CCC(C5)N6)nc(OCC56CCCN5CC(F)C6)nc4c3F)c12
Readout unit: %
viability, T/C: 108
--
Compound: O=C(c1ccc(F)c(F)c1Nc1ccc(I)cc1F)N1CC(O)([C@@H]2CCCCN2)C1 + C=CC(=O)N1CCN(c2nc(OCC3CCCN3C)nc3c(F)c(-c4nc(N)cc(C)c4C(F)(F)F)c(Cl)cc23)C(C)C1
Readout unit: %
viability, T/C: 17.9

I would be grateful if you could provide viability, T/C for each of the following entries.
1. CCN1CCN(Cc2ccc(Nc3ncc(F)c(-c4cc(F)c5nc(C)n(C(C)C)c5c4)n3)nc2)CC1 + C=CC(=O)N1CCN(c2nc(OCC3CCCN3C)nc3c(F)c(-c4nc(N)cc(C)c4C(F)(F)F)c(Cl)cc23)C(C)C1
2. CCN1CCN(Cc2ccc(Nc3ncc(F)c(-c4cc(F)c5nc(C)n(C(C)C)c5c4)n3)nc2)CC1 + C#Cc1c(F)ccc2cc(O)cc(-c3ncc4c(N5CC6CCC(C5)N6)nc(OCC56CCCN5CC(F)C6)nc4c3F)c12

1: 126; 2: 129

* * *

tested on: 282377-053-R-J1-PDC complex spheroid viability; assay: Anticancer human tumor 282377-053-R-J1-PDC cell line growth inhibition [RAS]; settings: second compound 3.16 µM; first compound 0.00316 µM; stronger effect = lower value;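 note: spheroids exposed to agents for seven days before readout; luminescence viability as percent of DMSO vehicle control wells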
Assay metric: viability, T/C (%)
Answers are plain numbers, in %.

Reference set, count: 2
Compound: CCN1CCN(Cc2ccc(Nc3ncc(F)c(-c4cc(F)c5nc(C)n(C(C)C)c5c4)n3)nc2)CC1 + C#Cc1c(F)ccc2cc(O)cc(-c3ncc4c(N5CC6CCC(C5)N6)nc(OCC56CCCN5CC(F)C6)nc4c3F)c12
Readout unit: %
Recorded measurement: 107
--
Compound: Nc1ccn(C2OC(CO)C(O)C2(F)F)c(=O)n1 (stereo not drawn) + C#Cc1c(F)ccc2cc(O)cc(-c3ncc4c(N5CC6CCC(C5)N6)nc(OCC56CCCN5CC(F)C6)nc4c3F)c12
Readout unit: %
Recorded measurement: 89.8

// next item, viability, T/C requested
Fill in reported viability, T/C for this entry: C=CC(=O)N1CCN(c2nc(OCC3CCCN3C)nc3c(F)c(-c4nc(N)cc(C)c4C(F)(F)F)c(Cl)cc23)C(C)C1 (stereo not drawn) + C#Cc1c(F)ccc2cc(O)cc(-c3ncc4c(N5CC6CCC(C5)N6)nc(OCC56CCCN5CC(F)C6)nc4c3F)c12
91.1
